TEST: 2-PE concentration / solubility in Succinate Buffered Saline by RP-HPLC
Format: physicochemical
RUN_CONDITIONS: aqueous buffer, thermodynamic from solid; succinate-buffered saline (pH 5.8) at 20° C.
OBSERVABLE: solubility

I'd like to know its solubility. The molecule in question is OCCOc1ccccc1
≥ 19.1 mg/mL
